Each record here notes measured normalized growth.
- Procedure Summary: chemical genetic growth profiling, strain panel (AID 1159580);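 also: tested at 20 µM; growth read once vehicle control cultures reached saturation at 30 °C; 1 = growth at the plate median or of vehicle wells; lower values mean less growth of the strain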
- Condition Set: S. cerevisiae deletion strains, growth OD, locus YEL003W, strain gim4, active compounds read low
Screen size: about 5,500 compounds; about 2,000 (36%) were called active. About 18% were inconclusive and are not listed. This is one part of the list.
// response body must contain only the number

Here is how some molecules turned out for normalized growth.
* O=C1c2ccccc2C(=O)c2c(O)c(O)cc(O)c21 | 0.392
* O=c1cc(-c2ccc(O)cc2)oc2cc(O[C@@H]3O[C@H](CO)[C@@H](O)[C@H](O)[C@H]3O[C@@H]3OC[C@](O)(CO)[C@H]3O)cc(O)c12 | 1.01
* O=C(/C=C/C(=O)Oc1ccccc1C(=O)O)Oc1ccccc1C(=O)O | 0.995
* CC(C)(O)CC[C@@H](O)[C@](C)(O)C1CC[C@@]2(O)C3=CC(=O)C4C[C@@H](O)[C@@H](O)C[C@]4(C)C3CC[C@]12C (stereo not given in full) | 1.01

Alright, here's another molecule for you.
Which normalized growth value belongs to `O=c1ccc2ccc(O)c(O)c2o1` ?
1

----------
Here, each record is paired with measured normalized growth data.
- Procedure Summary: chemical genetic growth profiling, strain panel (AID 1159580)
- Condition Set: S. cerevisiae deletion strains, growth OD, locus YOR106W, strain vam3, active compounds read low
The campaign covered roughly 5,500 compounds. About 2,000 (36%) were called active. Inconclusive results (about 18%) are left out. This is one part of the list.
// no unit, no text: just the number

Consider the reported normalized growth for these compounds:
- CCCCC(=O)N(Cc1ccc(-c2ccccc2-c2nn[nH]n2)cc1)[C@H](C(=O)O)C(C)C: 0.998
- O=C1c2ccccc2-c2cccc3cccc1c23: 0.693
- O=C(O)c1cc2cc(Cl)ccc2[nH]1: 0.999
- CC(C)=CCC1=C(O)c2ccccc2C(=O)C1=O: 0.595
- CCCCCN=C(N)N/N=C\c1c[nH]c2ccc(OC)cc12: 0.995
- COc1cc(O)c(C(=O)O)c(O)c1: 1.01

Using the record for `O=C(/C=C/C(=O)Oc1ccccc1C(=O)O)Oc1ccccc1C(=O)O` , report its normalized growth.
0.953

Which normalized growth is reported for this compound? `CN1CCN(C(c2ccccc2)c2ccccc2)CC1`
0.995

Returns the measured normalized growth for the input compound. Input: `O=C(O)CCCN1C(=O)c2cccc3cccc(c23)C1=O`
1.01

What value of normalized growth has been reported for the following compound? `CCCc1nc(C(C)(C)O)c(C(=O)OCc2oc(=O)oc2C)n1Cc1ccc(-c2ccccc2-c2nn[nH]n2)cc1`
0.969

# normalized growth lookup, item CCOc1nc2cccc(C(=O)OC(C)OC(=O)OC3CCCCC3)c2n1Cc1ccc(-c2ccccc2-c2nn[nH]n2)cc1 (stereo unspecified)
0.983

----------
- Procedure Summary: chemical genetic growth profiling, strain panel (AID 1159580)
- Condition Set: S. cerevisiae deletion strains, growth OD, locus YNL197C, strain WHI3
In all, about 5,500 compounds went through this assay and about 2,000 (36%) were called active. About 18% were inconclusive and are not listed. Cut-off read from the data, not from the text of the source: active = normalized growth mostly below about 0.91 (no sharp cut-off); inconclusive = no clear call, values can overlap the other calls; inactive = mostly above about 0.92. The list shows a part of the results.
Hi there, use one of these labels in your reply, thanks! active, inactive

Some entries whose results are on file:
* CCCCCCC/C=C\CCCCCCCCC(=O)O | inactive
* O=c1oc(Cl)c(Cl)c2ccccc12 | inactive

What is the recorded call for this molecule in the test? `C(=C\c1ccccc1)/CN1CCN(C(c2ccccc2)c2ccccc2)CC1`
inactive

Record request — test call for `CCCCC/C=C\C/C=C\C/C=C\C/C=C\CCCC(=O)NCC(=O)O`
inactive

----------
normalized growth by entry:
- Procedure Summary: chemical genetic growth profiling, strain panel (AID 1159580)
- Condition Set: S. cerevisiae deletion strains, growth OD, locus YDR162C, strain NBP2, active compounds read low
Hit rate of the full screen: of about 5,500 compounds, about 2,000 (36%) were called active. Roughly 18% stayed inconclusive and do not appear here. The list shows a part of the results.
Returns: the value as a bare number; no unit string appended.

• CCNc1nc(Cl)nc(NC(C)C)n1 = 1.04
• C[C@H]1C(=O)O[C@@H]2CCN3CC=C(COC(=O)[C@](C)(O)[C@]1(C)O)[C@H]23 = 0.996
• Cc1cccc(N(C)C(=S)Oc2ccc3ccccc3c2)c1 = 1.01

Shift focus to the following entry.
Requested field: normalized growth. Item: `Cc1c(N(C)CS(=O)(=O)O)c(=O)n(-c2ccccc2)n1C`
0.987

----------
- Procedure Summary: chemical genetic growth profiling, strain panel (AID 1159580)
- Condition Set: S. cerevisiae deletion strains, growth OD, locus YCL061C, strain MRC1
Screen size: about 5,500 compounds; about 2,000 (36%) were called active. Another 18% or so got no clear call; they are omitted. Rule as the data show it: active = normalized growth mostly below about 0.91 (no sharp cut-off); inconclusive = no clear call, values can overlap the other calls; inactive = mostly above about 0.92. Some of the results follow.
Choose the fitting class; nothing outside Y = active, N = inactive is accepted.

# example entries with known answers
- Cc1ncc([N+](=O)[O-])n1CCO: N
- FC(F)(F)c1cc(NC2=NCCN=C(Nc3cc(C(F)(F)F)cc(C(F)(F)F)c3)SS2)cc(C(F)(F)F)c1: N
- CNC(=O)CSP(=S)(OC)OC: N
- COc1ccccc1N1CCN(S(=O)(=O)c2ccc(C(F)(F)F)cc2)CC1: N
- COP(=S)(OC)SCn1nnc2ccccc2c1=O: N

Test call for this compound, please: `CC1(C)C=Cc2c(cc3occ(-c4ccc5c(c4)OCO5)c(=O)c3c2O)O1`
N

Any idea what this test logged for `COc1ccc(Cc2nccc3cc(OC)c(OC)cc23)cc1OC` ?
N

For `c1coc(CNc2ncnc3nc[nH]c23)c1` , what call appears in the results of this test?
N

Recorded test outcome, item CC(C)CCCC(C)[C@H]1CCC2C3CC[C@H]4CC(=O)CC[C@]4(C)C3CC[C@@]21C (stereo partly drawn)
N

Kindly provide the recorded test outcome for the following compound: `OCCN1CCN(CCCN2c3ccccc3Sc3ccc(Cl)cc32)CC1`
N

----------
normalized growth: recorded values
- Procedure Summary: chemical genetic growth profiling, strain panel (AID 1159580);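 also: tested at 20 µM; growth read once vehicle control cultures reached saturation at 30 °C; 1 = growth at the plate median or of vehicle wells; lower values mean less growth of the strain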
- Condition Set: S. cerevisiae deletion strains, growth OD, locus YHR079C, strain IRE1 (second series), active compounds read low
Among all 5,500 compounds or so, about 2,000 (36%) were called active. About 18% were inconclusive and are not listed. This is one part of the list.
Form: value (number only, do not type unit).

Take a look at these entries with their results.
* C[C@]12CCC3C(CC[C@H]4CC(=O)CC[C@]34C)C1CCC2=O (some centres undefined) | 0.991
* COC(=O)C1=CO[C@@H](O[C@@H]2O[C@H](CO)[C@@H](O)[C@H](O)[C@H]2O)[C@@H]2[C@@H](C)[C@@H](O)C[C@H]12 | 0.979
* CC1(C)C=Cc2c(cc3occ(-c4ccc5c(c4)OCO5)c(=O)c3c2O)O1 | 1.02

Value lookup for normalized growth; key = C/C=C(\C)C(=O)OC1[C@@H]2C=C3C4CC(=O)O[C@@H](c5ccoc5)[C@]4(C)CCC3[C@@](C)(C2=O)[C@@H](C(O)C(=O)OC)C1(C)C (some centres undefined)
1.03

State the recorded normalized growth for this entry: CSCCC(NC=O)C(=O)NC(CC(C)C)C(=O)NC(Cc1ccccc1)C(=O)O (centres undefined)
1

Request the reported normalized growth associated with `COc1cc2c(cc1-c1coc3c4c(c(OC)cc3c1=O)OC(C)(C)C=C4)OCO2`
0.995

Fill in the blank: the reported normalized growth of `CC(C)=CCc1c(O)cc2occ(-c3ccc4c(c3)OCO4)c(=O)c2c1O` is ____.
1.03

Could you tell me which normalized growth is on file for `N#C/C(=C\c1ccc(O)cc1)C(=O)O` ?
1

Quick one: normalized growth of CC(C)CCCC(C)C1CCC2C3CCC4CC(=O)CCC4(C)C3CCC12C (centres undefined) ?
1

----------
- Procedure Summary: chemical genetic growth profiling, strain panel (AID 1159580);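 also: tested at 20 µM; growth read once vehicle control cultures reached saturation at 30 °C; 1 = growth at the plate median or of vehicle wells; lower values mean less growth of the strain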
- Condition Set: S. cerevisiae deletion strains, growth OD, locus YER133W, strain GLC7
Hit rate of the full screen: of about 5,500 compounds, about 2,000 (36%) were called active. Roughly 18% stayed inconclusive and do not appear here. Cut-off read from the data, not from the text of the source: active = normalized growth mostly below about 0.91 (no sharp cut-off); inconclusive = no clear call, values can overlap the other calls; inactive = mostly above about 0.92. The list shows a part of the results.
// allowed return values: true (1) (active), false (0) (inactive)

Worked cases, answers included:
- Cc1ccc(C(=O)Nc2ccc3ccccc3n2)cc1: false (0)
- N#C/C(=N/Nc1ccc(C(F)(F)F)cc1)C(=O)C1CC1: false (0)

# next compound below
Which outcome did this test record for the compound `O=C(c1ccc(Cl)cc1)N1CCN(c2ccc(C(F)(F)F)cn2)CC1` ?
false (0)

----------
- Procedure Summary: chemical genetic growth profiling, strain panel (AID 1159580);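 also: tested at 20 µM; growth read once vehicle control cultures reached saturation at 30 °C; 1 = growth at the plate median or of vehicle wells; lower values mean less growth of the strain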
- Condition Set: S. cerevisiae deletion strains, growth OD, locus YOR265W, strain rbl2, active compounds read low
In all, about 5,500 compounds went through this assay and about 2,000 (36%) were called active. Another 18% or so got no clear call; they are omitted. This is one part of the list.
Readout: normalized growth
Give the figure only, with no unit attached.

Examples from the recorded data:
* Cc1cccc(N(C)C(=S)Oc2ccc3ccccc3c2)c1 | 0.969
* C=C1CC2C(CCC3(C)C(=O)CCC23)C2(C)C=CC(=O)C=C12 (stereo not given) | 0.948

// lookup normalized growth for `O=C(/C=C/C(=O)Oc1ccccc1C(=O)O)Oc1ccccc1C(=O)O`
0.979
